Cited source for all entries: patent US20250333419A1

Molecular target: WRN (Homo sapiens)
Construct: A His-tagged construct of WRN (AA S2-S1235) was produced and used for the ATPase assay; His; made in house; host or cells: Sf9 insect cells (baculovirus)
Assay: WRN Helicase activity assay (fluorescence DNA unwinding)
Type: biochemical
Conditions: IC50, 1-hr pre-incubation with enzyme; geometric means of at least 2 independent replicates
Reported IC50 values for the following compounds.

Examples with their reported IC50 follow.
[[record]]
compound = "C=CC(=O)N1CCCC=C1c1c(CC)n(CC(=O)Nc2ccc(C(F)(F)F)cc2)c2nc(C3=CCOCC3)nn2c1=O"
property = "IC50"
result = "< 100 nM"

[[record]]
compound = "C=CC(=O)Nc1ccccc1-c1c(CC)n(CC(=O)Nc2ccc(C(F)(F)F)cc2)c2nc(C3CCNCC3)nn2c1=O"
property = "IC50"
result = "100 to 500 nM"


input: Tell me the measured IC50 of CCc1c(-c2ccccc2NC(=O)/C(C#N)=C\C(C)C)c(=O)n2nc(C3=CCOCC3)nc2n1CC(=O)Nc1ccc(C(F)(F)F)cc1 (single isomer, unassigned) , please.
output: 500 to 1000 nM

input: Tell me the measured IC50 of C=CC(=O)N1CCc2cccc(-c3c(CC)n(CC(=O)Nc4ccc(C(F)(F)F)cc4)c4nc(C5=CCOCC5)nn4c3=O)c21 , please.
output: < 100 nM

input: Tell me the measured IC50 of C=CC(=O)Nc1ccccc1-c1c(CC)n(CC(=O)Nc2ccc(C(F)(F)F)cc2)c2nc(C3CCOCC3)nn2c1=O , please.
output: 500 to 1000 nM

input: Tell me the measured IC50 of C=CC(=O)Nc1cc(C(F)(F)F)ccc1-c1c(CC)n(CC(=O)Nc2ccc(C(F)(F)F)cc2)c2nc(C3=CCOCC3)nn2c1=O , please.
output: < 100 nM

input: Tell me the measured IC50 of C=CC(=O)Nc1ccccc1-c1c(CC)n(CC(=O)Nc2ccc(C(F)(F)F)cc2)c2nc(C3CCC3)nn2c1=O , please.
output: 100 to 500 nM

----------
Molecular target: WRN (Homo sapiens, UniProt Q14191)
Construct: A His-tagged construct of WRN (AA S2-S1235) was produced and used for the ATPase assay; His; made in house; host or cells: Sf9 insect cells (baculovirus)
Sequence (Q14191 2-1235): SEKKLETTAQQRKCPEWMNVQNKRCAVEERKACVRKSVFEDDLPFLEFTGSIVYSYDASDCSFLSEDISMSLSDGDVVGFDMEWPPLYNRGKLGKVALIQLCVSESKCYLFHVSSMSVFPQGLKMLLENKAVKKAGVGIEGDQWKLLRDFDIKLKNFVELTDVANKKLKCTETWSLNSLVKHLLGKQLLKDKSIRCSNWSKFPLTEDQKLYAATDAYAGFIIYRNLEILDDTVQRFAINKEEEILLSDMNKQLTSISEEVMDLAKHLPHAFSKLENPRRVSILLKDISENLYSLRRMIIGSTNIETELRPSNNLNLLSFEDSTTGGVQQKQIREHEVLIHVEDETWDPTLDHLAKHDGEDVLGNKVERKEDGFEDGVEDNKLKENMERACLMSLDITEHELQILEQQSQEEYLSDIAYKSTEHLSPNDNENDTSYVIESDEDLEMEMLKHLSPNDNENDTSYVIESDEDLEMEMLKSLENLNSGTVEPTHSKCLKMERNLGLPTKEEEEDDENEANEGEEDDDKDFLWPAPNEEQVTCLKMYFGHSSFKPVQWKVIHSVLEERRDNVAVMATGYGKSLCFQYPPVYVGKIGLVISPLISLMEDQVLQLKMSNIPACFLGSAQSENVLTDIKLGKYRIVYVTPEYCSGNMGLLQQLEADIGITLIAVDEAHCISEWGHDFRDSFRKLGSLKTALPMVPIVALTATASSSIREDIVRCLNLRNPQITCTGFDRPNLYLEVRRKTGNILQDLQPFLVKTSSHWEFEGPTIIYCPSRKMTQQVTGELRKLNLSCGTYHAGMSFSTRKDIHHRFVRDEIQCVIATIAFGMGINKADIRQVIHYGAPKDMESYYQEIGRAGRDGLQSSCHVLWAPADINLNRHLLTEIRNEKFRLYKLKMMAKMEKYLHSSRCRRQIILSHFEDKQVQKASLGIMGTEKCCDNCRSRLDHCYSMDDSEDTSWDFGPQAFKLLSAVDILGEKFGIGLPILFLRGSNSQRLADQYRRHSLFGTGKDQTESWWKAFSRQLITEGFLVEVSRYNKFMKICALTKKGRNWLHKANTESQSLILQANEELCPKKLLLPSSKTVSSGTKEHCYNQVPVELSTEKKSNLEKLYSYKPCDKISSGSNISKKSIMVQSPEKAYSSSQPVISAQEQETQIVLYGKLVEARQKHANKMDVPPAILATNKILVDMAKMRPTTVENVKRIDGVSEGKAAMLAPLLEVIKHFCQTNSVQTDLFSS
Test: WRN ATPase activity assay (ADP-Glo)
Format: biochemical
Conditions: IC50, 1-hr pre-incubation with enzyme; geometric means of at least 2 independent replicates
pIC50: −log10 of the molar value.
property: pIC50

[[record]]
molecular_string = "CCOC(=O)/C=C/C(=O)Nc1ccccc1-c1c(CC)n(CC(=O)Nc2ccc(C(F)(F)F)cc2)c2nc(C3=CCOCC3)nn2c1=O"
result = "6.00 to 6.30"

[[record]]
molecular_string = "C=CC(=O)Nc1ccccc1-c1c(CC)n(CC(=O)Nc2ccc(C(F)(F)F)cc2)c2nc(C)nn2c1=O"
result = "6.00 to 6.30"

[[record]]
molecular_string = "C=CC(=O)Nc1ccccc1-c1c(CC)n(CC(=O)Nc2ccc(C(F)(F)F)cc2)c2nc(C3CCCCC3)nn2c1=O"
result = "6.30 to 7.00"

[[record]]
molecular_string = "C=CC(=O)Nc1ccccc1-c1c(CC)n(CC(=O)Nc2ccc(C(F)(F)F)cc2)c2nc(C3CCNCC3)nn2c1=O"
result = "6.30 to 7.00"

[[record]]
molecular_string = "C=CC(=O)Nc1ccccc1-c1c(CC)n(CC(=O)Nc2ccc(C(F)(F)F)cc2)c2nc(-c3cccs3)nn2c1=O"
result = "> 7.00"


input: Tell me the measured pIC50 of C=CC(=O)Nc1ccccc1-c1c(CC)n(CC(=O)Nc2ccc(C(F)(F)F)cc2Cl)c2nc(C3=CCOCC3)nn2c1=O , please.
output: > 7.00

input: Tell me the measured pIC50 of C=CC(=O)Nc1cc(F)ccc1-c1c(CC)n(CC(=O)Nc2ccc(C(F)(F)F)cc2)c2nc(C3=CCOCC3)nn2c1=O , please.
output: > 7.00
